Where these numbers come from: patent US10906905B2

Experiment: Pharmacokinetics assay in rats after intragastrical administration
Type: in vivo
Details: both sexes, Sprague-Dawley, rat, plasma, po, SD rats, 2 mg/kg, read-out: Area under curve AUC
QUANTITY KIND: AUC (ng·h/mL)

Guide cases for AUC, answers given:
Cc1cccc(-c2nc3n(c2-c2ccc4nccc(C(N)=O)c4c2)[C@@H]2CC[C@H]3C2)n1
475
Cc1cccc(-c2nc3n(c2-c2ccc4nccc(C(N)=O)c4c2)[C@H]2CC[C@@H]3C2)n1
637
NC(=O)c1ccnc2ccc(-c3c(-c4ccc(F)cn4)nc4n3[C@H]3CC[C@@H]4C3)cc12
689

a. Cc1cccc(-c2nc3n(c2-c2ccc4nnc(C(N)=O)n4c2)[C@H]2CC[C@@H]3C2)n1
b. Cc1cccc(-c2nn3c(c2-c2ccnc(-c4ccc(S(C)(=O)=O)cc4)c2)C2CCC3CC2)n1
**Q:** # return whichever of a and b has the smaller AUC // caller expects the label of the chosen entry
**A:** b
